- Test system: MEK4
- Construct: gene MAP2K4
- condition-context: concentration: 1 μM, replicates: in singlicate; n = 1
Entries and their measured %Inh follow.
Reply numerically in %, unit not repeated.

O=C(Nc1n[nH]c2nc(-c3cccs3)c(Br)cc12)C1CCCC1    23
Cc1ccccc1-c1cc(-c2c[nH]nc2-c2ccccn2)ccn1    4
COC(=O)c1cccc(NC(=O)NC2CCN(c3ccnc(Nc4ccc(OC)cc4)n3)C2)c1 (stereo not shown)    34
Nc1ncnc2occ(-c3ccc4c(c3)CCN4C(=O)Cc3cc(F)ccc3F)c12    2
Cc1ccccc1Cn1ccn2c(=O)cc(N3CCOCC3)nc12    27

Need %Inh of "COc1ccc(Nc2nccc(NCCNC(=O)Nc3cc(C)ccc3C)n2)cc1" , thanks. 0

Need %Inh of "NS(=O)(=O)c1cccc(N/C=C2\C(=O)Nc3ccc(S(=O)(=O)Cc4c(Cl)cccc4Cl)cc32)c1" , thanks. 23

Need %Inh of "CCn1c(-c2c(N)noc2C)nc2cnccc21" , thanks. 0

Need %Inh of "COc1cc2ncnc(Nc3cccc(Br)c3)c2cc1OC.Cl" , thanks. 20

Need %Inh of "Cc1c(Cn2c3ccccc3n3c(=O)cc(N4CCOCC4)nc23)cccc1C(F)(F)F" , thanks. 17

Need %Inh of O=C(Nc1n[nH]c2nc(-c3ccco3)c(Br)cc12)C1CCN(Cc2ccccc2)C1.O=C(O)[C@H](O)[C@@H](O)C(=O)O (stereo not shown) , thanks. 20

Need %Inh of "COc1nccc(-c2c(-c3ccc(F)cc3)ncn2CCCN2CCOCC2)n1" , thanks. 23

* * *

- Test system: RIPK5
- condition-context: concentration: 1 μM, replicates: in singlicate; n = 1
Entries and their measured %Inh follow.
Reply numerically in %, unit not repeated.

Worked examples follow.
CNC(=O)c1ccc(C)c(-n2c(C)cc(OCc3ccc(F)cc3F)c(Br)c2=O)c1    0
CC(C)c1ccc(O)cc1Nc1ccnc2ccc(C(F)(F)F)cc12    0
COC(=O)C(NC(=O)NC1CCN(c2ccnc(Nc3ccc(F)cc3)n2)C1)c1ccccc1 (centres unmarked)    22

Query the reported %Inh for RIPK5; item: "Nc1nccc(-c2c(-c3ccc(F)cc3)ncn2C2CCN(Cc3ccccc3)CC2)n1" 34

Query the reported %Inh for RIPK5; item: "CNc1cc(-c2ccc3c(N)n[nH]c3c2)nc(N)n1" 0

* * *

- System: ERK4
- Construct: gene MAPK4
- condition-context: concentration: 1 μM, replicates: in singlicate; n = 1
measured-attribute: %Inh (%)
Reply numerically in %, unit not repeated.

Worked examples follow.
CCn1c(-c2ccccc2)nc2cnccc21 [SB-733416]    0
Fc1ccc(-c2nn3cccc(F)c3c2-c2ccncc2)cc1 [GW475620]    4

Need %Inh of COC(=O)C(Cc1ccccc1)NC(=O)NC1CCN(c2ccnc(Nc3ccc(F)cc3)n2)C1 (stereo not shown) [GSK1379714] , thanks. 12

Need %Inh of FC(F)(F)c1ccccc1-c1cc(-c2c[nH]nc2-c2ccccn2)ccn1 [GW679396] , thanks. 21

Need %Inh of Cn1cncc1-c1cc2c(Nc3ccc(OCc4ccccc4)cc3)ncnc2cn1 [GW281179] , thanks. 0

Need %Inh of O=C1NC(=O)C(c2ccc(Cl)cc2)=C1Nc1ccc(O)cc1 [SB-340867] , thanks. 0

Need %Inh of "COc1ccc(-c2coc3ccc(-c4nnc(C)o4)cc23)cc1" , thanks. 1

Need %Inh of CCCCc1nn2ncccc2c1-c1ccnc(NC2CC2)n1 [GW684374] , thanks. 27

Need %Inh of COC(=O)C(NC(=O)NC1CCN(c2ccnc(Nc3ccc(F)cc3)n2)C1)c1ccccc1 (stereo not shown) [GSK1379712] , thanks. 24

Need %Inh of "COc1ccc(CSc2nnc(-c3ccc4nccn4c3)o2)cc1C(F)(F)F" , thanks. 0

* * *

Entries and their measured %Inh follow.
- System: GSK3B
- condition-context: concentration: 1 μM, replicates: in singlicate; n = 1
Reply numerically in %, unit not repeated.

Cc1ccccc1Cn1ccn2c(=O)cc(N3CCOCC3)nc12    15

Query the reported %Inh for GSK3B; item: "CC(C)c1ccc(O)cc1Nc1ccnc2ccc(C(F)(F)F)cc12" 0

Query the reported %Inh for GSK3B; item: COc1ccc(Nc2nccc(N3CCC(NC(=O)C(C)c4ccc(Cl)cc4)CC3)n2)cc1 (centres unmarked) 8

Query the reported %Inh for GSK3B; item: "CC(=O)c1c(C)c2cnc(Nc3ccn(C)n3)nc2n(C2CCCC2)c1=O" 0

Query the reported %Inh for GSK3B; item: "NS(=O)(=O)c1cccc(N/C=C2\C(=O)Nc3ccc(S(=O)(=O)Cc4c(Cl)cccc4Cl)cc32)c1" 20

* * *

- Test system: CLK3
- condition-context: concentration: 1 μM, replicates: in singlicate; n = 1
Entries and their measured %Inh follow.
Reply numerically in %, unit not repeated.

Nc1nccc(-c2c(-c3ccc(F)cc3)ncn2C2CCN(Cc3ccccc3)CC2)n1    0

Need %Inh of COc1cccc(CNC(=O)NC2CCN(c3ccnc(Nc4ccc(F)cc4)n3)C2)c1 (stereo not drawn) , thanks. 0

Need %Inh of COC(=O)C(NC(=O)NC1CCN(c2ccnc(Nc3ccc(F)cc3)n2)C1)c1ccccc1 (stereo not drawn) , thanks. 0

Need %Inh of "COc1ccc(-c2coc3ccc(-c4nnc(C)o4)cc23)cc1" , thanks. 0

Need %Inh of "CS(=O)(=O)Cc1ccc(Nc2nccc(-c3c(-c4cccc(NC(=O)C5CCCCC5)c4)nn4ncccc34)n2)cc1" , thanks. 24

Need %Inh of "Cc1ccccc1Cn1ccn2c(=O)cc(N3CCOCC3)nc12" , thanks. 28

* * *

Entries and their measured %Inh follow.
- Test system: DAPK1
- condition-context: concentration: 1 μM, replicates: in singlicate; n = 1
Could you write the number and then its unit?

O=C(Nc1n[nH]c2nc(-c3ccco3)c(Br)cc12)C1CCN(Cc2ccccc2)C1.O=C(O)[C@H](O)[C@@H](O)C(=O)O (stereo not drawn)    0%
CCc1ccc(-c2ccc3c(c2)-c2n[nH]cc2S(=O)(=O)N3C)cc1    24%

Need %Inh of "Cc1ccccc1-c1cc(-c2c[nH]nc2-c2ccccn2)ccn1" , thanks. 0%

* * *

- System: PIP5K2C;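 note: kd values determined as follow-up on hits from a single-replicate KINOMEscan panel screen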
- Construct: gene PIP4K2C
measured-attribute: pKd
Units for pKd: none; it is -log10 of a concentration expressed in mol/L.

Need pKd of Nc1nccc(-c2c(-c3ccc(F)cc3)ncn2C2CCN(Cc3ccccc3)CC2)n1 [SB-219980] , thanks. 7.03

* * *

Entries and their measured %Inh follow.
- System: CAMKK2
- condition-context: concentration: 1 μM, replicates: in singlicate; n = 1
Could you write the number and then its unit?

Worked examples follow.
Cc1ccc(NC(=O)Nc2ccc(Cl)c(C(F)(F)F)c2)cc1-c1ccc(C(=O)Nc2ccncc2)cc1    0%
CS(=O)(=O)Cc1ccc(Nc2nccc(-c3c(-c4cccc(NC(=O)C5CCCCC5)c4)nn4ncccc34)n2)cc1    0%
O=C1NC(=O)C(c2ccc(Cl)cc2)=C1Nc1cccc(Cl)c1    5%
COc1cccc(NC(=O)Nc2ccc(C)c(-c3ccc(C(=O)Nc4ccncc4)cc3)c2)c1    19%
CNCc1ccc2nc(NC(=O)c3ccc(C(C)(C)C)cc3)cn2c1    12%

Need %Inh of "O=C1NC(=O)C(c2ccc(Cl)cc2)=C1Nc1ccc(O)cc1" , thanks. 0%

Need %Inh of COc1ccc(Nc2nccc(N3CCC(NC(=O)C(C)c4ccc(Cl)cc4)CC3)n2)cc1 (stereo not shown) , thanks. 31%

* * *

- Test system: CSNK1E
- condition-context: concentration: 1 μM, replicates: in singlicate; n = 1
measured-attribute: %Inh (%)
Reply numerically in %, unit not repeated.

Worked examples follow.
COc1cccc(NC(=O)Nc2ccc(C)c(-c3ccc(C(=O)Nc4ccncc4)cc3)c2)c1    42
COC(=O)c1cccc(NC(=O)NC2CCN(c3ccnc(Nc4ccc(F)cc4)n3)C2)c1 (stereo not drawn)    7
Cc1ccccc1Cn1ccn2c(=O)cc(N3CCOCC3)nc12    28
O=C1NC(=O)C(c2ccc(Cl)cc2)=C1Nc1ccc(O)cc1    0

Query the reported %Inh for CSNK1E; item: "O=C(Nc1n[nH]c2nc(-c3cccs3)c(Br)cc12)C1CC1" 0

Query the reported %Inh for CSNK1E; item: "CCn1c(-c2c(N)noc2C)nc2cnccc21" 11

Query the reported %Inh for CSNK1E; item: "COc1cccc(C2=C(Nc3cc(Cl)c(O)c(Cl)c3)C(=O)NC2=O)c1" 24

Query the reported %Inh for CSNK1E; item: "CNC(=O)c1ccc(C)c(-n2c(C)cc(OCc3ccc(F)cc3F)c(Br)c2=O)c1" 6

Query the reported %Inh for CSNK1E; item: "COc1ccc(CSc2nnc(-c3ccc4nccn4c3)o2)cc1C(F)(F)F" 0
